- test target: GluN1a wt/ GluN2B Q110A (Rattus norvegicus, UniProt P35439+Q00960, Q110A)
- Sequence (Q00960 27-1482 Q110A, other chains not shown): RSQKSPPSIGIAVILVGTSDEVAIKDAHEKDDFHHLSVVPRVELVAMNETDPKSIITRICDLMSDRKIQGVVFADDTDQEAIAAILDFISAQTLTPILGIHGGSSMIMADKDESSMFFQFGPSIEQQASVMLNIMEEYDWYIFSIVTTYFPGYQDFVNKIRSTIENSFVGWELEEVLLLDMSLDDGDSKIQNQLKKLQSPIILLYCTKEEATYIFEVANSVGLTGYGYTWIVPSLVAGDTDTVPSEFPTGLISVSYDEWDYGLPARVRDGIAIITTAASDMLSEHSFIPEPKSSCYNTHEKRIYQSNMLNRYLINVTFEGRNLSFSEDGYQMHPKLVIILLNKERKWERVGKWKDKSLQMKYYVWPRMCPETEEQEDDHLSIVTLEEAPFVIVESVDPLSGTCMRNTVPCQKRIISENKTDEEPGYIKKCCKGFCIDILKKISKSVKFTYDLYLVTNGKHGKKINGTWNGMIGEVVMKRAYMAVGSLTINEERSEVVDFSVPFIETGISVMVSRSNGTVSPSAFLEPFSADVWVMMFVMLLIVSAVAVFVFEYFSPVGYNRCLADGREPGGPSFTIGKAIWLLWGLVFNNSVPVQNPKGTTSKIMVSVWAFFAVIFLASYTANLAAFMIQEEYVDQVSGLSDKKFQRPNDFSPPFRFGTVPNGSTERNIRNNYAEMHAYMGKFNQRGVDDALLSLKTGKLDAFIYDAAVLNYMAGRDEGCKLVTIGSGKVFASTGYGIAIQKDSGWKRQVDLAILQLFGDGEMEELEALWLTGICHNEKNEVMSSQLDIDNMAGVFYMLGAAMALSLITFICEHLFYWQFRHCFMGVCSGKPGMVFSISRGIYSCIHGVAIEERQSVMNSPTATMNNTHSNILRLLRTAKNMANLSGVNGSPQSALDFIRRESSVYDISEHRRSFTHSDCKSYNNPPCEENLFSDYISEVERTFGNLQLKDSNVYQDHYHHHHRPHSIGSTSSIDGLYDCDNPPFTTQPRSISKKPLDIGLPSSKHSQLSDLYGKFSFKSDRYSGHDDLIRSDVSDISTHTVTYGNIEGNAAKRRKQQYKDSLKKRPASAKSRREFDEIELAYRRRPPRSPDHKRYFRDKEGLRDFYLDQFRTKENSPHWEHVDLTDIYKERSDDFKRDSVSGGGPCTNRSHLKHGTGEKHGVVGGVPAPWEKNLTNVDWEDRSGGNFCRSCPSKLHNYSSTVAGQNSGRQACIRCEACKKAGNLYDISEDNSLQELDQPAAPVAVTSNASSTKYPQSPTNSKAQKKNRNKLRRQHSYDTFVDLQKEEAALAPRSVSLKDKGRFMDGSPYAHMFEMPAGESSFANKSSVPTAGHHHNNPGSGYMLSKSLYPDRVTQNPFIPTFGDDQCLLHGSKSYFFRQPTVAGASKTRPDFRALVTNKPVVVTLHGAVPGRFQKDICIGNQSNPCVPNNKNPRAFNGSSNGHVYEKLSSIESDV
- experiment: TEVC recording in X. laevis oocytes, GluN2B mutant screening
- condition description: agonists 10 µM glycine + 10 µM (S)-glutamate; fitted curve
pIC50: −log10 of the molar value.
value type: pIC50

Oc1ccc2c(c1)CCN(CCCCc1ccccc1F)C[C@@H]2O [(R)-OF-NB1]; 6.68

###

- test target: GluN1a wt/ GluN2B N192A (Rattus norvegicus, UniProt P35439+Q00960, N192A)
- Sequence (Q00960 27-1482 N192A, other chains not shown): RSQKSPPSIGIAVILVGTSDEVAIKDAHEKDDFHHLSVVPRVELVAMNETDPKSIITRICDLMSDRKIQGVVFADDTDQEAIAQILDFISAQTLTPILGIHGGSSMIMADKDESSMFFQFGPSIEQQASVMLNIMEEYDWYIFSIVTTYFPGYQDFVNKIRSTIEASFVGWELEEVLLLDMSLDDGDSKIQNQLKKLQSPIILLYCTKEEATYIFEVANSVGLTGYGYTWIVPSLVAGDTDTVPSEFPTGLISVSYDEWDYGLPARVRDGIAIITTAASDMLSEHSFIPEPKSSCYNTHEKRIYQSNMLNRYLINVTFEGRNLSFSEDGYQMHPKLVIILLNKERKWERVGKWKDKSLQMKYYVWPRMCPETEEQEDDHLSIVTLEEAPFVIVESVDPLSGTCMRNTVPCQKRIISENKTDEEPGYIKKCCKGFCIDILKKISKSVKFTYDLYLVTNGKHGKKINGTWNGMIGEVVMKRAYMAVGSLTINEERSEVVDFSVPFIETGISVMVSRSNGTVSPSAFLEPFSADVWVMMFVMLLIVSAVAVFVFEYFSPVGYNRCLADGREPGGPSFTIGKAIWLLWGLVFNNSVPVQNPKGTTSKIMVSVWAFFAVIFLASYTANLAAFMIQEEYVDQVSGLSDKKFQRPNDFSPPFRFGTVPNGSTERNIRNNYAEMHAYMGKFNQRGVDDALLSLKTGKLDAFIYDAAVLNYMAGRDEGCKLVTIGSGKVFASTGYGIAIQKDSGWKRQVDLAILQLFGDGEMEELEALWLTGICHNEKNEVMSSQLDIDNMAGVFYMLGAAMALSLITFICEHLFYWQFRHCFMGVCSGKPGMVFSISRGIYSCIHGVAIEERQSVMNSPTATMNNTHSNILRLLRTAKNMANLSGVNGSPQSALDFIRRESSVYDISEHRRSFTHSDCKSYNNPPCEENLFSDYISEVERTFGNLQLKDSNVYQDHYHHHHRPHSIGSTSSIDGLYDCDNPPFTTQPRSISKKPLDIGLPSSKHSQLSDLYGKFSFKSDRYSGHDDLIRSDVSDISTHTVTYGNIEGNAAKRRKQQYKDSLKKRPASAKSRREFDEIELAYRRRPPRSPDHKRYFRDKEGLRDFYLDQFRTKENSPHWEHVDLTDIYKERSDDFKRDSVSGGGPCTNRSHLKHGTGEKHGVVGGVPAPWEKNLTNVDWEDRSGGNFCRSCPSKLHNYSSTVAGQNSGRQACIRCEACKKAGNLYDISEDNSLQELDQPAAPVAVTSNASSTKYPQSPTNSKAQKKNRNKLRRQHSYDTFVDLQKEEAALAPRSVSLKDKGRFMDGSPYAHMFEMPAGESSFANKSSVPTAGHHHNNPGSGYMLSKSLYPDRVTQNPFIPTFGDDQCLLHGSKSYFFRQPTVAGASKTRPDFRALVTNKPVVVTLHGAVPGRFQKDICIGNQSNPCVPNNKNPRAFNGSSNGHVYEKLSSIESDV
- experiment: TEVC recording in X. laevis oocytes, GluN2B mutant screening
- condition description: agonists 10 µM glycine + 10 µM (S)-glutamate; fitted curve
pIC50: −log10 of the molar value.
value type: pIC50

Oc1ccc2c(c1)CCN(CCCCc1ccccc1F)C[C@@H]2O [(R)-OF-NB1]; 6.55
